# System: Hek293T
# measurement-protocol: Primary qHTS to identify gynecologic anti-cancer compounds using libraries of approved drugs and bioactive compounds (AID 1345084); also: % is scaled to controls: 0 for no effect and ±100 for the full control effect; nearly all actives have a fitted effect of over 55% in size
# stated-conditions: Gynecologic cancer cell panel viability, ATPlite luminescence, 48 h, control line for the selectivity index; series mostly up to 57.5 µM
Inconclusive results are not listed. Activity calls are given as the source filed them. Calls follow the shape of the dose curve; as a rule, active = well fitted cell-killing curve with a large enough effect; inconclusive = small, poorly fitted or top-dose-only effect, or effect the other way; inactive = flat fitted curve, though single readings scatter.
readout-kind: activity change, negative = cytotoxicity

compound	observed-measurement
C/C(=C\CO)CC/C=C(\C)C(=O)O[C@@H]1O[C@H](CO)[C@@H](O)[C@H](O)[C@H]1O	inactive
CC1(C)CC[C@]2(C(=O)O[C@@H]3O[C@H](CO)[C@@H](O)[C@H](O)[C@H]3O)CC[C@]3(C)C(=CCC4[C@@]5(C)CC[C@H](O[C@H]6O[C@H](CO)[C@@H](O)[C@H](O[C@@H]7O[C@H](CO)[C@@H](O)[C@H](O)[C@H]7O)[C@H]6O)C(C)(C)C5CC[C@]43C)[C@@H]2C1 (stereo partly specified)	5.32% [at 11.6 µM] (inactive)
CCCCOc1nc(N)c2c(n1)N(Cc1cccc(CN3CCCC3)c1)CC(=O)N2	inactive
C[C@@H]1O[C@@H](O[C@H]2[C@H](O)[C@@H](O)[C@H](OC[C@H]3O[C@@H](OC(=O)[C@]45CCC(C)(C)C[C@H]4C4=CCC6[C@@]7(C)C[C@@H](O)[C@H](O)[C@@](C)(CO)C7[C@H](O)C[C@@]6(C)[C@]4(C)CC5)[C@H](O)[C@@H](O)[C@@H]3O)O[C@@H]2CO)[C@H](O)[C@H](O)[C@H]1O (stereo partly specified)	-2.97% [at 11.6 µM] (inactive)
CC1=C2C(=O)C=C(CO[C@@H]3O[C@H](CO)[C@@H](O)[C@H](O)[C@H]3O)[C@@H]2[C@H]2OC(=O)[C@H](C)[C@@H]2[C@@H](O)C1	inactive

For each of the compounds below, note its activity change, negative = cytotoxicity.
1. CC1(C)OC(=O)CC(O)C2(C)C1CC(=O)C1(C)C2C(O)CC2(C)C(c3ccoc3)OC(=O)C3OC321 (stereo unspecified)
2. COc1cc2c(c(O)c1OC/C=C(\C)CC/C=C(/C)CCC=C(C)C)CN(C(CCC(=O)O)C(=O)O)C2=O (stereo unspecified)
3. Cc1c(-c2ccc3c(c2)OCO3)oc2ccc(C(O)C(C)O)cc12 (stereo unspecified)
4. CNC(=O)c1ccc2c(c1)CCO[C@H]2CCN1CCN(c2ccc(C(N)=O)cc2)CC1
5. C=CC(C)(O)CC/C=C(\C)C(=O)O[C@@H]1[C@@H](O)[C@H](OC(C)(C=C)CC/C=C(\C)C(=O)O[C@@H]2O[C@H](CO)[C@@H](O)[C@H](O)[C@H]2O)O[C@H](CO)[C@H]1OC(=O)/C(C)=C/CCC(C)(O)C=C (stereo partly specified)
6. C=C(CCO[C@@H]1O[C@H](CO)[C@@H](O)[C@H](O)[C@H]1O)C(=O)O
7. CC/C=C\C(O)C(O)C1=C(C)C(=O)C2(O1)C(=O)NC(OC)(C(=O)c1ccccc1)C2O (stereo unspecified)
8. C=C(C(=O)OC)[C@]12O[C@@](C)(CC[C@@]3(O)/C(=C\C)C(=O)O[C@]3(C)C[C@@H]1OC(=O)C(CO)CN1CCCC1C(=O)O)CC2=O (stereo partly specified)

1: inactive; 2: inactive; 3: inactive; 4: inactive; 5: 7.88% [at 11.6 µM] (inactive); 6: inactive; 7: inactive; 8: inactive

For each of the compounds below, note its activity change, negative = cytotoxicity.
1. CC12CC(c3ccoc3)OC(=O)C1CCC1(C)C2CCC(O)C1(C)O (stereo unspecified)
2. C/C(=C\CCC(C)C1CC(O)C2(C)C3CCC4C(C)(C)C(OC5OCC(O)C(O)C5O)CCC45CC35CC(O)C12C)C(=O)O (stereo unspecified)
3. Cc1noc2c1-c1ccccc1C(c1ccc(Cl)cc1)=N[C@H]2CC(N)=O
4. CC1=C2CC(=O)C(C)CC/C=C(\C)CC2OC1=O (stereo unspecified)

1. inactive
2. inactive
3. inactive
4. inactive

----------
# Tested on: NIH3T3
# measurement-protocol: qHTS assay to identify novel small-molecules to repurpose for Merkel cell carcinoma treatment (AID 1296009); also: nearly all actives have a fitted effect of over 60% in size
# stated-conditions: MCC and control cell lines, CellTiter-Glo viability, 72 h; at 44.8 µM (top of the series) unless noted
Results filed as inconclusive are left out. The source made the active and inactive calls. The call rests on the fitted dose curve; in most records, active means well fitted inhibition curve with a large enough effect; inconclusive means small, poorly fitted or top-dose-only effect; inactive means flat fitted curve, though single readings scatter.
readout-kind: outcome

Sample records with outcome:
molecule	readout-kind	observed-measurement
CC1CC2OCC3(O)CCC(O)C(C14CC(c1ccoc1)OC4=O)C23CO (configuration not stated)	outcome	inactive
CC(=O)OC1C(O)C(C)(O)C(/C=C/C(=O)O)C2(C)CCCC(C)(C)C12 (configuration not stated)	outcome	inactive
O=C(/C=C/c1ccc(O)cc1)O[C@H]1[C@H](OC2CCCCC2O)O[C@H](CO)[C@@H](O)[C@@H]1O (some centres not stated)	outcome	inactive [at 17.4 µM]
CC(C)=CCC/C(C)=C/CO[C@@H]1O[C@H](CO[C@@H]2OC[C@](O)(CO)[C@H]2O)[C@@H](O)[C@H](O)[C@H]1O	outcome	inactive [at 17.4 µM]
CC(C)c1ccc2c(c1)[C@H](O)CC1[C@@](C)(C(=O)O)CCC[C@]21C (some centres not stated)	outcome	inactive

For each of the molecules below, note its outcome.
1. C=C1CC23CC1CCC2C12OC(=O)C(C)(C(O)C(O)C1O)C2C3C(=O)O (configuration not stated)
2. O=C(O)CC(CCc1ccccc1)OC1OC(CO)C(O)C(O)C1O (configuration not stated)
3. CCC/C=C/C=C/C1CC(O)C(O)C(=O)C1CO (configuration not stated)
4. CC(C)=CCc1cc(O[C@@H]2O[C@H](CO[C@@H]3OC[C@](O)(CO)[C@H]3O)[C@@H](O)[C@H](O)[C@H]2O)ccc1O
5. CC(C)(CC(=O)N1CCCC1)NCC(=O)N1C[C@@H](F)C[C@H]1C#N
6. COc1cc2c(cc1OC)N1C(=O)C[C@@]34C=CC[N@+]5([O-])CC[C@H]2[C@H](CC3)[C@@]145
7. Cc1ccc2[nH]c(=O)c(C3=NN(C(=O)CCC(=O)O)C(c4ccc(Br)cc4)C3)c(-c3ccccc3)c2c1 (configuration not stated)

1: inactive; 2: inactive; 3: inactive; 4: inactive [at 17.4 µM]; 5: inactive; 6: inactive; 7: inactive

----------
# Tested on: HaCat
# measurement-protocol: Cytotoxic Profiling of Annotated Libraries Using Quantitative High-Throughput Screening (AID 1296008); also: % is scaled to controls: 0 for no effect and ±100 for the full control effect; nearly all actives have a fitted effect of over 60% in size
# stated-conditions: Five cell lines viability, CellTiter-Glo ATP luminescence, 48-72 h; stronger effect = lower value
Results filed as inconclusive are left out.
readout-kind: max response (%)
Give bare numbers, in %.

Sample records with max response:
molecule	target-of-assay	max response, %
CCCCCOC(=O)Nc1nc(=O)n(C2O[C@H](C)[C@@H](O)[C@H]2O)cc1F (some centres not stated)	HaCat	-6.73
Cc1ccc(C)c(NC(=O)CNS(=O)(=O)c2ccc3[nH]c(=O)oc3c2)c1	HaCat	-0.793
C=CCC1=C[C@]2(OC)[C@H](C)[C@@H](c3ccc(OC)c(OC)c3)O[C@]2(OC)CC1=O	HaCat	-0.368
C[C@@H]1C(=O)O[C@H]2[C@H]1CC[C@@]1(C)C(=O)C=C[C@@](C)(O)[C@H]21	HaCat	-2.04

For each of the molecules below, note its max response.
1. CCN=C1N[C@@H]2[C@@H](O)[C@H](O)[C@@H](CO)O[C@@H]2S1
2. COC(=O)C1=CO[C@@H](O[C@@H]2O[C@H](CO)[C@@H](O)[C@H](O)[C@H]2O)[C@@H]2[C@@H](C)[C@@H](OC(=O)/C=C/c3ccccc3)[C@@H](O)[C@H]12
3. CC(=O)[C@@H]1C[C@H](C(C)(C)O[C@@H]2O[C@H](CO)[C@@H](O)[C@H](O)[C@H]2O)CC[C@@]2(CO)OC(=O)C[C@@H]12
4. C=C(CCO)C(=O)OCC1OCC(OC(=O)C(=C)CCO[C@@H]2O[C@H](COC(=O)C(=C)CCO[C@@H]3O[C@H](CO)[C@@H](O)[C@H](O)[C@H]3O)[C@@H](O)[C@H](O)[C@H]2O)C(O)C1O (some centres not stated)
5. CC1(C)CC[C@]2(C(=O)O[C@@H]3O[C@H](CO[C@@H]4O[C@H](CO)[C@@H](O)[C@H](O)[C@H]4O)[C@@H](O)[C@H](O[C@@H]4O[C@H](CO)[C@@H](O)[C@H](O)[C@H]4O)[C@H]3O)[C@H](O)C[C@]3(C)C(=CCC4[C@@]5(C)CC[C@H](O[C@@H]6OC[C@@H](O)[C@H](O)[C@H]6O)[C@@](C)(C(=O)O)C5CC[C@]43C)[C@@H]2C1 (some centres not stated)
6. CC(C)=CCC[C@](C)(O[C@@H]1O[C@H](CO)[C@@H](O)[C@H](O)[C@H]1O)[C@H]1CC[C@]2(C)[C@@H]1[C@H](O)CC1[C@@]3(C)CC[C@H](O)C(C)(C)C3[C@@H](O[C@@H]3O[C@H](CO)[C@@H](O)[C@H](O)[C@H]3O[C@@H]3O[C@@H](C)[C@H](O)[C@@H](O)[C@H]3O)C[C@]12C (some centres not stated)
7. C/C=C(\C)C(=O)OC[C@H]1O[C@@H](O[C@H]2[C@@H](O[C@H]3O[C@H](COC(=O)/C(C)=C/C)[C@@H](O)[C@H](O)[C@H]3O[C@@H]3O[C@H](COC(=O)/C(C)=C/C)[C@@H](O)[C@H](OC(=O)/C(C)=C/C)[C@H]3O)O[C@H](COC(=O)/C(C)=C/C)[C@@H](O)[C@@H]2O)[C@H](O)[C@@H](O)[C@@H]1O

[2.86, -9.9, 4.13, -17.9, -5.99, -12.1, -1.65]

Answer with max response of CC1(O)CCC2C(C3C1CCC3(C)O)C2(C)C (configuration not stated) measured for HaCat. 2.93
